- Test system: 786-0 renal
- Run description: NCI tumour cell line growth inhibition, 48 h
Consider the following molecules; for each one, report its TGI.

stdin: Give TGI (786-0 renal) of the following molecule: Nc1nc2c(c(=O)[nH]1)N=C(COP(=O)(O)OP(=O)(O)O)CN2
stdout: > 100 µM

stdin: Give TGI (786-0 renal) of the following molecule: N=C1/C(=C/c2ccccc2)C(=O)N=C2SC=NN12
stdout: > 100 µM

stdin: Give TGI (786-0 renal) of the following molecule: O=S1c2ccccc2N=C(c2ccc3ccccc3c2)CC1c1ccccc1F (configuration not stated)
stdout: > 100 µM

stdin: Give TGI (786-0 renal) of the following molecule: C[C@]12CC[C@H]3[C@@H](CC=C4C[C@@H](O)CC[C@@]43C)[C@@H]1C[C@H](N1CCOCC1)[C@@H]2O
stdout: > 100 µM

stdin: Give TGI (786-0 renal) of the following molecule: CCn1c(SCC(=O)NNC(=S)Nc2ccc(Cl)cc2)nc2ccccc2c1=O
stdout: > 100 µM

stdin: Give TGI (786-0 renal) of the following molecule: Cc1ccc(C2NC(=S)N3C(c4ccc(C)cc4)NC(=S)N23)cc1 (configuration not stated)
stdout: 19.9 µM

stdin: Give TGI (786-0 renal) of the following molecule: CN(C)C=NCc1ccc2c(c1)OCO2
stdout: > 100 µM

stdin: Give TGI (786-0 renal) of the following molecule: Nc1ncnc2c1nc(N)n2C1OC(CO)C(O)C1O (configuration not stated)
stdout: 3.71 µM

stdin: Give TGI (786-0 renal) of the following molecule: S=C1NCCN1C(=S)NC1CCCCC1
stdout: > 100 µM

stdin: Give TGI (786-0 renal) of the following molecule: CC1=C(C(=O)Nc2cccc(C(F)(F)F)c2)C(c2ccccc2F)C(C(=O)Nc2cccc(C(F)(F)F)c2)=C(C)N1
stdout: 19.4 µM

stdin: Give TGI (786-0 renal) of the following molecule: CC(=O)C1=C(C)N(c2ccc(C)cc2)C2(O)C=CC(=O)C3=C(O)c4ccccc4C(=O)C312 (configuration not stated)
stdout: > 100 µM

stdin: Give TGI (786-0 renal) of the following molecule: c1ccc(-c2sc(-c3ccccc3)c3c2C2CCC3C2)cc1
stdout: > 100 µM

stdin: Give TGI (786-0 renal) of the following molecule: Cc1ccc(S(=O)(=O)N/N=C2/C3C(CC2(C)C)C2(C)CCCC3(C)C2O)cc1 (configuration not stated)
stdout: 45.3 µM

stdin: Give TGI (786-0 renal) of the following molecule: Nc1cccc2c1CN(C1CCC(=O)NC1=O)C2=O (configuration not stated)
stdout: > 100 µM

stdin: Give TGI (786-0 renal) of the following molecule: Nc1cccc(/C=C/CN2CCN(CCOC(c3ccccc3)c3ccccc3)CC2)c1
stdout: 30.5 µM

stdin: Give TGI (786-0 renal) of the following molecule: C=CCC1(O)C(=O)OC2C(O)COC21O (configuration not stated)
stdout: > 100 µM

stdin: Give TGI (786-0 renal) of the following molecule: CC1(Br)S(=O)(=O)OCCOS1(=O)=O
stdout: > 100 µM

----------
- Tested on: SK-OV-3 ovarian
- Run description: NCI tumour cell line growth inhibition, 48 h
Consider the following compounds; for each one, report its TGI.

stdin: Look up TGI: COc1ccc(C(=O)/C=C/c2ccc(OCC#N)cc2)cc1OC
stdout: > 100 µM

stdin: Look up TGI: O=C(N/N=C/c1ccncc1)c1ccc(C(F)(F)F)nc1Nc1cccc(C(F)(F)F)c1
stdout: 6.67 µM

stdin: Look up TGI: Cc1ccccc1C(=O)NC(O)(C(F)(F)F)C(F)(F)F
stdout: > 100 µM

stdin: Look up TGI: CC(=O)Nc1c(I)c(C(=O)O)c(I)c(N(C)C(C)=O)c1I
stdout: > 100 µM

stdin: Look up TGI: C=C(C)C1Cc2c(cc(OC)c3c(=O)c4ccccc4n(C)c23)O1 (stereo not given)
stdout: > 100 µM

stdin: Look up TGI: [CH3][Sn]([CH3])([CH3])[O]C(=O)C(O)c1ccccc1 (stereo not given)
stdout: 47.2 µM

stdin: Look up TGI: Cc1cc(NS(=O)(=O)c2ccc(NC(=O)COc3ccc(-c4cc5ccccc5[nH]4)cc3)cc2)no1
stdout: 3.55 µM

stdin: Look up TGI: CN(C)CCCNC(=O)c1cccc2nc3ccccc3nc12
stdout: > 100 µM

stdin: Look up TGI: Cc1ccc(-c2c3c(N)nc(-c4ccncc4)nc3nc3c2c(C)nn3-c2ccccc2)cc1
stdout: 10.2 µM

stdin: Look up TGI: CC12OC3(C(O)C1O)C(C(=O)O[C@H]3CO[Si](C)(C)C(C)(C)C)C2S(=O)(=O)c1ccccc1 (stereo not given in full)
stdout: > 100 µM

stdin: Look up TGI: O=C(O)c1ccccc1-c1ccccc1C(=O)Nc1ccc2c(c1)Cc1ccccc1-2
stdout: > 100 µM

stdin: Look up TGI: O=C1NC2(NC(=O)C1=O)Nc1ccccc1S2
stdout: > 100 µM

stdin: Look up TGI: CCOC(=O)C1=C(C)NC(C)=C(C(=O)OCC)C1c1cc(Br)c(O)c(OC)c1
stdout: 7.38 µM

stdin: Look up TGI: COc1cc(C2CC(=O)c3c(C)nn(-c4nc5ccccc5[nH]4)c3C2)cc(OC)c1OC (stereo not given)
stdout: > 100 µM

stdin: Look up TGI: O=S1CCN(Cc2ccc(-c3ccc4ncnc(Nc5ccc(OCc6ccccc6)c(F)c5)c4c3)o2)CC1
stdout: 0.226 µM

stdin: Look up TGI: O=C1C=Cc2c1csc2Br
stdout: > 100 µM

stdin: Look up TGI: O=c1c(-c2ccc3c(c2)OCO3)coc2c(CO)c(O)ccc12
stdout: 6.39 µM

stdin: Look up TGI: O=C1NC(=O)C(N2CCc3ccccc32)=C1c1ccc(Cl)cc1
stdout: > 25 µM

stdin: Look up TGI: CN1C(=O)CN=C(c2ccccc2F)c2cc(N=C=S)ccc21
stdout: > 100 µM

stdin: Look up TGI: O=CNNC(=O)CSc1nc2ccc(I)cc2c(=O)n1Cc1ccccc1
stdout: > 100 µM
